Entry source: patent US20260242735A1

For each of the binders below, state its Mean % WT Binding.
tested_system: human CD33 I242A (human, UniProt P20138 18-364)
Sequence (P20138 18-364 I242A limits assumed): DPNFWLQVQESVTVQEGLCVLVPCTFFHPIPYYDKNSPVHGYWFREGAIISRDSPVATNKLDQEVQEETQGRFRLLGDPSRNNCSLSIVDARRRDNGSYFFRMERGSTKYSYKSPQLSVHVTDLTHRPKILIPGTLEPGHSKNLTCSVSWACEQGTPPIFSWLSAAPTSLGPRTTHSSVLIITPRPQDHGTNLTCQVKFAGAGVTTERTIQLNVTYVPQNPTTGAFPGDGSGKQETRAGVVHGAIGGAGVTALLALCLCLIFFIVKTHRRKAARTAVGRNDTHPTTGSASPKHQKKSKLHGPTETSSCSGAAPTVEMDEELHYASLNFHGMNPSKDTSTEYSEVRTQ
assay_info: alanine scan, flow cytometry, HEK293-T;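 further: antibody binding to each alanine-substituted CD33 mutant expressed transiently in HEK293-T, read as fluorescence minus background, mean of duplicates, relative to wild-type CD33 set as 100%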

// Mean % WT Binding value for Refmab #1 (antibody, V domains shown, In the alanine scan antibodies were used as IgG or Fab; also called hP67.6) VH: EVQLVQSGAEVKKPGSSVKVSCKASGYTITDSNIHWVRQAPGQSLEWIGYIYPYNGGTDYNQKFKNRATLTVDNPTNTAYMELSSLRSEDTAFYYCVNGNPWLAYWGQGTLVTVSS VL: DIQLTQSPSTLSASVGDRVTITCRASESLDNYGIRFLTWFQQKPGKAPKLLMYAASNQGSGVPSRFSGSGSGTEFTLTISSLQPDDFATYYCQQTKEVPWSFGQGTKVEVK : 77.9%

For reference, reported Mean % WT Binding for Refmab #3 (antibody, V domains shown, In the alanine scan antibodies were used as IgG or Fab) VH: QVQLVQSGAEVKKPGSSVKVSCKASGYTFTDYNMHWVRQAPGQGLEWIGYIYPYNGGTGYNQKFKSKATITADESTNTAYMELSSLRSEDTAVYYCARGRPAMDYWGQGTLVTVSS VL: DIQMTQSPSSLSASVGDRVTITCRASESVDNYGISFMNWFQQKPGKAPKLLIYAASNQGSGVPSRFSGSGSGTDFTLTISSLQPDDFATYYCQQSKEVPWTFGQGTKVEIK stands at 128%

Given item Refmab #2 (antibody, V domains shown, In the alanine scan antibodies were used as IgG or Fab) VH: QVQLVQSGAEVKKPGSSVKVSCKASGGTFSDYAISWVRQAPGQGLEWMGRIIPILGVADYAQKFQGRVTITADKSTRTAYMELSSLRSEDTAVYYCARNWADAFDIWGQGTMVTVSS VL: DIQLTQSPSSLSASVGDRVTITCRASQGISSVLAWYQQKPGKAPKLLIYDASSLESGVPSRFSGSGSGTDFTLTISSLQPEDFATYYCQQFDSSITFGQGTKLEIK , the value recorded as its Mean % WT Binding is 98.6%

// recorded Mean % WT Binding for Refmab #4 (antibody, V domains shown, In the alanine scan antibodies were used as IgG or Fab) VH: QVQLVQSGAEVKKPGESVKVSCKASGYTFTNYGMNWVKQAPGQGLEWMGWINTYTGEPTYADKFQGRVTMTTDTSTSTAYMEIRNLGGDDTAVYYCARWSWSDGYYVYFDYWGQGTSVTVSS VL: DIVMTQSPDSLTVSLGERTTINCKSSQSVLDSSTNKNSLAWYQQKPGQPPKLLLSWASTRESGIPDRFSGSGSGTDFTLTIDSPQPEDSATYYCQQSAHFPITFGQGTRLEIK : 104%
